subjectOfTest: activated p38α (Homo sapiens, UniProt Q16539)
Sequence (Q16539 whole entry): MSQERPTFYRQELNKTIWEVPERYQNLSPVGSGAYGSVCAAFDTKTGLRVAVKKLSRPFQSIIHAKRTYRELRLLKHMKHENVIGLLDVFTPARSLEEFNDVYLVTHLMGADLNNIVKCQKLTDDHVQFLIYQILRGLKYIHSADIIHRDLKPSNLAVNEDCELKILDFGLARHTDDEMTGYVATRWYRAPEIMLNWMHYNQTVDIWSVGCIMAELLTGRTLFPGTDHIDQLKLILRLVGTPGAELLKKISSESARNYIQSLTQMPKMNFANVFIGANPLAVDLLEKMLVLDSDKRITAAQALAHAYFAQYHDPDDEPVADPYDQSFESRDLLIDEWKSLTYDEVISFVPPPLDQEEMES
methodDescription: Kinase assay (p38α, ATF2 substrate, ELISA read-out)
Type: biochemical
appliedConditions: Table 1; 100 μM ATP, 10 ng activated p38α; read-out: Kinase assay IC50
reportedEndpoint: IC50 (µM)

molecule: Cn1c(SCCCN2C(=O)c3ccccc3C2=O)nc(-c2ccc(F)cc2)c1-c1ccncc1
subjectOfTest: activated p38α (Homo sapiens, UniProt Q16539)
unitsLabel: µM
valueObserved: 2.4
//
molecule: Cn1c(SCCCN)nc(-c2ccc(F)cc2)c1-c1ccncc1
subjectOfTest: activated p38α (Homo sapiens, UniProt Q16539)
unitsLabel: µM
valueObserved: 1.4
//
molecule: Cn1c(SCCN)nc(-c2ccc(F)cc2)c1-c1ccncc1
subjectOfTest: activated p38α (Homo sapiens, UniProt Q16539)
unitsLabel: µM
valueObserved: 1.8

[1] Cn1c(SCCC(=O)O)nc(-c2ccc(F)cc2)c1-c1ccncc1
[2] CCOC(=O)CC(=O)CSc1nc(-c2ccc(F)cc2)c(-c2ccncc2)n1C
Query string: Just curious, which one has the larger IC50 reading, 1 or 2 ? Mark your answer with the label of the selected entry.
Result string: 2
